- System: human red blood cells
- experimentSummary: Hemolytic activity
- Format: cell-based
- conditionLabel: red cells of human, 1 h, 150
Square brackets hold non-standard residues; d marks the D form. Peptide text beside a SMILES is read from it. d1Nal = N[C@H](Cc1cccc2ccccc12)C(=O)O; dNle = CCCC[C@@H](N)C(=O)O
assayMetric: %H (% Hemolysis at 150 µM) (%)
Write the answer as a number in %, unit excluded.

compound: CCCC[C@@H](NC(=O)[C@@H](CCCCN)NC(=O)[C@@H](Cc1cccc2ccccc12)NC(=O)[C@@H](Cc1ccccc1)NC(=O)[C@@H](Cc1ccccc1)NC(=O)[C@@H](Cc1cccc2ccccc12)NC(=O)[C@@H](CCCCN)NC(=O)[C@H](N)CCCCN)C(N)=O [Compound 12, kk(1-nal)ff(1-nal)k(nle)-NH2] (H-[dK][dK][d1Nal][dF][dF][d1Nal][dK][dNle]-NH2; N-terminus assumed)
measurementTarget: human red blood cells
unit: %
%H (% Hemolysis at 150 µM): 74

State the recorded %H (% Hemolysis at 150 µM) for this entry: CCCC[C@@H](NC(=O)[C@@H](CCCCN)NC(=O)[C@@H](Cc1cccc2ccccc12)NC(=O)[C@@H](CO)NC(=O)[C@@H](Cc1ccccc1)NC(=O)[C@@H](Cc1cccc2ccccc12)NC(=O)[C@@H](CCCCN)NC(=O)[C@H](N)CCCCN)C(N)=O [Compound 13, kk(1-nal)fs(1-nal)k(nle)-NH2] (H-[dK][dK][d1Nal][dF][dS][d1Nal][dK][dNle]-NH2; N-terminus assumed)
29
